# run-description: Competitive ELISA, relative CTS specificity, OUB as competitor
# Type: binding
# condition-summary: competition with immobilized MBG-BSA; normalized to MBG = 100%
reported-metric: Rel. CTS Specificity as % of MBG Binding: OUB (%)
# unit: % | format: bare number

Task: GET /values?readout=Rel. CTS Specificity as % of MBG Binding: OUB&item= 201/202: human anti-MBG antibody, VH SEQ ID NO: 22, VL SEQ ID NO: 23 (antibody, listed as Homo sapiens, V domains shown) VH: QLQLQESGPGLVKPSQTLSLTCTVSGGSISSGGYYWGWIRQPPGKGLEWIGSIYYSGNTYYNPSLKSRVTISVDTSKNQFSLKLSSVTAADTAVYYCARASIAARTFDYWGQGTLVTVSS VL: QSVLTQPPSVSAAPGQKVTISCSGSSSNIGNNYVSWYQQLPGTAPKLLIYDNNKRPSGIPDRFSGSKSGTSATLGITGLQTGDEADYYCGTWDSSLSAYVFGTGTKVTVL
Result: 0

Task: Next molecule: 238/239: human anti-MBG antibody, VH SEQ ID NO: 41, VL SEQ ID NO: 42 (antibody, listed as Homo sapiens, V domains shown) VH: QLQLQESGPGLVKPSETLSLTCTVSGGSISSSSYYWGWIRQPPGKGLEWIGSIYYSGSTYYNPSLKSRVTISVDTSKNQFSLKLSSVTAADTAVYYCARVVVARTGTTISWFDPWGQGTLVTVSS VL: QAVLTQPSSLSASPGASASLTCTLRSGINVDTYRIYWYQQKPGSPPQYLLRYKSDSDKQQGSGVPSRFSGSKDASANAGILLISGLQSEDEADYYCVIWHSSAWVFGGGTKLTVL
Result: 10

Task: Next molecule: H3L2: humanized anti-MBG antibody, VH H3 (SEQ ID NO: 11) with VL L2 (SEQ ID NO: 13) (antibody, V domains shown, Humanized VH sequence; Humanized VL sequence) VH: EVQLQESGPGLVKPSETLSLTCTVSGDSITSGYWNWIRQPPGKGLEYMGYISYSGTTYYNPSLKSRITISRDTSKNQYSLKLSSVTAADTAVYYCARARYGYGFDYWGQGTLVTVSS VL: DVVMTQSPLSLPVTLGQPASISCRSSQSIVHSNRNTYLEWYQQRPGQSPRLLIYKVSNRFSGVPDRFSGSGSGTDFTLKISRVEAEDVGVYYCFQGSHVPLTFGGGTKVEIK
Result: 0
